# method.description: Metabolic stability in tryptic soy broth assessed as S-oxidation at 50 uM after 48 hrs
# Assay type: physicochemical
reported.metric: Stability

Dear colleague, I am looking for the recorded Stability of the following compound: Cc1c(O)c(=S)ccn1Cc1ccc(-c2ccc(F)c(F)c2)cc1
Stable

Dear colleague, I am looking for the recorded Stability of the following compound: Cc1c(O)c(=S)ccn1Cc1ccc(-c2ccccc2)cc1
Stable

Dear colleague, I am looking for the recorded Stability of the following compound: O=C(Cc1cccc(F)c1)NO
Unstable

Dear colleague, I am looking for the recorded Stability of the following compound: O=C(Cc1ccccc1)NO [PHENYLACETOHYDROXAMIC ACID]
Unstable

====

# target.or.test.system: Elastase (Pseudomonas aeruginosa (strain ATCC 15692 / PAO1 / 1C / PRS 101 / LMG12228))
# method.description: Antagonist activity at Pseudomonas aeruginosa PA14 LasB assessed as inhibition of swarming at 25 uM after 16 hrs swarming motility assay relative to control
# Type: functional
The source made the active and inactive calls. No cut-off for these calls is given here.
reported.metric: Activity

Dear colleague, I am looking for the recorded Activity of the following molecule: Cc1c(O)c(=S)ccn1Cc1ccc(-c2ccccc2)cc1
Active

Dear colleague, I am looking for the recorded Activity of the following molecule: O=C(Cc1ccccc1)NO [PHENYLACETOHYDROXAMIC ACID]
inactive

Dear colleague, I am looking for the recorded Activity of the following molecule: O=C(Cc1cccc(F)c1)NO
inactive

Dear colleague, I am looking for the recorded Activity of the following molecule: Cc1c(O)c(=S)ccn1Cc1ccc(-c2ccc(F)c(F)c2)cc1
Active

====

# target.or.test.system: Elastase (Pseudomonas aeruginosa (strain ATCC 15692 / PAO1 / 1C / PRS 101 / LMG12228), UniProt P14756)
# Sequence (P14756 whole entry): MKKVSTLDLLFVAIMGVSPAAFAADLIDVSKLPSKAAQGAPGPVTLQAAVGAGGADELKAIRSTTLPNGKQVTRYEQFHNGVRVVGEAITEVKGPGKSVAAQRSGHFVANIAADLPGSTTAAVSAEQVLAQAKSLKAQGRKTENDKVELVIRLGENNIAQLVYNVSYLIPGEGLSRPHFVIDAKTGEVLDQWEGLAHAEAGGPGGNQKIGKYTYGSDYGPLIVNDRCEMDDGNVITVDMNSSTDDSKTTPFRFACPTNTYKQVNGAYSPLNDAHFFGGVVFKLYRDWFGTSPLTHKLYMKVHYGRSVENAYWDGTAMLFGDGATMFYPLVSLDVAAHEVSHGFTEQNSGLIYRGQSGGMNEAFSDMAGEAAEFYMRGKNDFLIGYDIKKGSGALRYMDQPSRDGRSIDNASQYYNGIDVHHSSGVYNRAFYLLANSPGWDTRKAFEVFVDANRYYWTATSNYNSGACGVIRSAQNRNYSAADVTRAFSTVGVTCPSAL
# method.description: Antagonist activity at Pseudomonas aeruginosa LasB using Abz-Ala-Gly-Leu-Ala-p-Nitro-Benzyl-Amide as substrate incubated for 30 mins prior to substrate addition by FRET assay
pIC50: −log10 of the molar value.
Where pIC50 equals or exceeds 5, the correct label is Satisfied; where it does not, the label is Not satisfied.

Could you please find out whether Cc1c(O)c(=S)ccn1Cc1ccc(-c2ccc(Cl)cc2)cc1 has pIC50 that meets 5 or exceeds it?
Satisfied

Could you please find out whether Cc1ccc(-c2ccc(Cn3ccc(=S)c(O)c3C)cc2)cc1 has pIC50 that meets 5 or exceeds it?
Satisfied

Could you please find out whether Cn1cccc(O)c1=S has pIC50 that meets 5 or exceeds it?
Not satisfied

Could you please find out whether Cc1c(O)c(=S)ccn1Cc1ccc(-c2ccccc2)cc1 has pIC50 that meets 5 or exceeds it?
Satisfied

Could you please find out whether Cc1c(O)c(=S)ccn1Cc1ccc(-c2ccc3c(c2)OCO3)cc1 has pIC50 that meets 5 or exceeds it?
Satisfied

Could you please find out whether Cc1c(O)c(=S)ccn1Cc1ccc(-c2ccc(F)c(F)c2)cc1 has pIC50 that meets 5 or exceeds it?
Satisfied

Could you please find out whether O=C(Cc1cccc(F)c1)NO has pIC50 that meets 5 or exceeds it?
Not satisfied

Could you please find out whether Cc1c(O)c(=S)ccn1Cc1ccc(-c2ccc(F)cc2)cc1 has pIC50 that meets 5 or exceeds it?
Satisfied

Could you please find out whether CCn1ccc(=S)c(O)c1C has pIC50 that meets 5 or exceeds it?
Not satisfied

====

# method.description: Metabolic stability in tryptic soy broth assessed as decomposition at 50 uM after 48 hrs
# Type: physicochemical
reported.metric: Stability

Dear colleague, I am looking for the recorded Stability of the following molecule: Cc1c(O)c(=S)ccn1Cc1ccc(-c2ccc(F)c(F)c2)cc1
Stable

Dear colleague, I am looking for the recorded Stability of the following molecule: O=C(Cc1ccccc1)NO [PHENYLACETOHYDROXAMIC ACID]
Unstable

Dear colleague, I am looking for the recorded Stability of the following molecule: Cc1c(O)c(=S)ccn1Cc1ccc(-c2ccccc2)cc1
Stable

Dear colleague, I am looking for the recorded Stability of the following molecule: O=C(Cc1cccc(F)c1)NO
Unstable
